The reported numbers originate from PubChem BioAssay (NCI).

# Tested on: OVCAR-5 ovarian
# Assay Notes: NCI tumour cell line growth inhibition, 48 h
Experimental Endpoint: TGI

Example compounds with recorded TGI:
Compound: O=C1c2ccc([N+](=O)[O-])cc2-c2c1c1ccccc1c(=O)n2CCCNCCCNCCCn1c2c(c3ccc([N+](=O)[O-])cc3c1=O)C(=O)c1ccccc1-2
TGI: 11.3 µM
//
Compound: CCC(=O)O[C@H]1CC[C@H]2[C@@H]3CC[C@H]4CC(=O)[C@H](C)C[C@]4(C)[C@H]3CC[C@]12C
TGI: > 100 µM
//
Compound: COc1ccc2c(c1)C(=O)c1c-2n(CCCN=[N+]=[N-])c(=O)c2cc(N(C)C)ccc12
TGI: > 100 µM
//
Compound: N#CC(C#N)=C1C(C#N)=C(N)NC12OCCO2
TGI: > 100 µM
//
Compound: Clc1ccc(Cc2nc3ccccc3nc2-c2cccc(Br)c2)cc1
TGI: 16.6 µM
//
Compound: CCCn1c(SC)nc(COC(=O)NC)c1COC(=O)NC
TGI: > 100 µM
//
Compound: COc1cc2c(c(OC)c1OC)-c1ccc(N)c(=O)cc1[C@@H](NC(C)=O)CC2
TGI: > 100 µM
//
Compound: CN(C)/N=C/c1cn(C)c(=O)n(C)c1=O
TGI: > 100 µM
//
Compound: CN(C)CCNC(=O)c1ccc(NCCCN(C)CCCNc2ccc3c(=O)n(CCN(C)C)c(=O)n4c5ccccc5c(=O)c2c34)c2c(=O)c3ccccc3[nH]c12
TGI: 0.68 µM
//
Compound: Cn1nc2n(c1=O)CCCN2
TGI: > 100 µM

stdin: Entry O=C(O)[C@@H]1[C@H](C(=O)O)[C@H](C(=O)O)C[C@@H]1C(=O)O : reported TGI = ?
stdout: > 100 µM

stdin: Sample CN(C)c1nc(N(C)C)nc(N(C)C23CC4CC(CC(C4)C2)C3)n1 — what was its TGI?
stdout: > 100 µM

stdin: Any idea what its TGI is? The compound is O=C(CCN1CCCC1)Nc1ccc2sc3ccccc3c(=O)c2n1
stdout: 19 µM

stdin: I'd like to know its TGI. The compound in question is CC(=O)O[C@@H]1C[C@@]23C[C@@]24CC[C@H](OC2OCC(O)C(O)C2O)C(C)(C)[C@@H]4CC=C3[C@]2(C)C[C@@H]3OC4(C[C@@H](C)[C@@H]3[C@@]12C)OC(O)[C@@]1(C)O[C@@H]41 (stereo not given in full)
stdout: > 100 µM

stdin: Returns the measured TGI for the input compound. Input: O=C(O)COc1ccc(O)c2c1C(=O)CCCC2=O
stdout: > 100 µM

stdin: Can you share its TGI? I mean this compound: COc1cc(/C=C\c2ccc(C)cc2)cc(OC)c1OC
stdout: > 91.5 µM

stdin: // TGI lookup, key: Cc1ccc(S(=O)(=O)NNC(=O)c2cc(C)ccc2NC(=O)C23CC4CC(CC(C4)C2)C3)cc1
stdout: > 100 µM

stdin: Field request: TGI | item: Cc1ccc(C2=NOC(=O)[C@@H]3CCCC[C@@H]23)cc1
stdout: > 100 µM

stdin: Data request, read-out TGI, for Nc1cccc2c1C(=O)c1cccc(N)c1C2=O
stdout: > 100 µM

stdin: Quick check: TGI of COc1ccc(N(C)C(=O)N(C)c2ccc([N+](=O)[O-])cc2)cc1 ?
stdout: > 100 µM

###

Quick reference for TGI among some compounds
# System: OVCAR-4 ovarian
# Assay Notes: NCI tumour cell line growth inhibition, 48 h

Here is how some compounds turned out for TGI.
Compound: COc1ccc(N2Cc3cnc(Nc4ccccc4)nc3N([C@@H]3CC[C@@H](O)C3)C2=O)cc1
Experimental Endpoint: TGI
Assay Value: > 25 µM

Compound: COc1ccc(-c2cc(=O)c3c(C)cc(C)nc3[nH]2)cc1
Experimental Endpoint: TGI
Assay Value: > 100 µM

Compound: Cc1ccncc1.F[B-](F)(F)F.[Pt+2].c1ccc(-c2cccc(-c3ccccn3)n2)nc1
Experimental Endpoint: TGI
Assay Value: > 100 µM

Compound: NC(=S)N/N=C\c1ccc(OCc2cccc(COc3ccc(/C=N/NC(N)=S)cc3)n2)cc1
Experimental Endpoint: TGI
Assay Value: > 100 µM

Compound: CCOC(=O)C1=C(c2ccccc2)N(C)c2ccccc2S1
Experimental Endpoint: TGI
Assay Value: > 100 µM

Compound: CCCNCCCC(NC(C)=O)C(=O)NCc1ccccc1 (centres undefined)
Experimental Endpoint: TGI
Assay Value: > 100 µM

stdin: # value lookup — system OVCAR-4 ovarian, readout TGI, item N=c1oc2ccc3ccccc3c2cc1C(N)=O
stdout: > 100 µM

stdin: Lab request: please report TGI under test system OVCAR-4 ovarian for COc1cc(/C=C\c2ccc(C)cc2)cc(OC)c1OC
stdout: 46.5 µM

stdin: Param readout= TGI; system= OVCAR-4 ovarian; entry= Clc1ccc(N2N=C(c3cccc(Nc4ccncc4)c3)CC2c2ccc3c(c2)OCO3)cc1 (centres undefined) ; returns value.
stdout: 3.25 µM

stdin: Any idea what TGI came out for CCc1n(Cc2ccc3ccccc3n2)cc[n+]1Cc1ccc2ccccc2n1 on OVCAR-4 ovarian?
stdout: 10.4 µM

stdin: Kindly state the measured TGI obtained for CN(C)c1nc(N(C)C)nc(N(C)C23CC4CC(CC(C4)C2)C3)n1 with OVCAR-4 ovarian.
stdout: > 100 µM

stdin: Which TGI is reported with OVCAR-4 ovarian for this entry: O=C(c1ccccc1)C1CCCCN1C(=O)c1ccccc1 (centres undefined) ?
stdout: > 100 µM

stdin: So what TGI did COc1ccc(NC(=O)C(=O)Cc2nc3ccc([N+](=O)[O-])cc3[nH]c2=O)c(OC)c1 get with OVCAR-4 ovarian?
stdout: > 100 µM

stdin: Request: TGI, test system OVCAR-4 ovarian, entry CCc1c(Cc2cccc3ccccc23)n2c(nc1=O)SCC2OCCO (centres undefined)
stdout: > 100 µM

stdin: # query: TGI | item CCOC(=O)c1c(N2CCCC2)ncn(-c2ccccc2)c1=S | system: OVCAR-4 ovarian
stdout: > 100 µM

stdin: Please tell me: TGI of N=C1N(S(=O)(=O)c2ccccc2)[C@@H](Cc2ccccc2)[C@H](c2ccccc2)C1(c1ccccc1)c1ccccc1 , system OVCAR-4 ovarian?
stdout: > 100 µM

stdin: I'm curious: which TGI was measured for Cc1cc(/C=C\c2ccc3ccccc3[n+]2C)c(O)c2ncccc12 tested on OVCAR-4 ovarian?
stdout: 1.73 µM

stdin: Param readout = TGI; param system = OVCAR-4 ovarian; param query = O=Cc1ccccc1OCCOc1cc(OCCOc2ccccc2C=O)c(OCCOc2ccccc2C=O)cc1OCCOc1ccccc1C=O ; response: value
stdout: > 100 µM

stdin: API: value(readout=TGI, system=OVCAR-4 ovarian) for record CN1CCN(c2c(Cl)cc(Cl)c3[nH]c4ccccc4c(=O)c23)CC1
stdout: 46.2 µM

stdin: What value of TGI on OVCAR-4 ovarian does COc1ccccc1N=C(N)N/N=C/c1c[nH]c2ccccc12 have?
stdout: 31.3 µM

stdin: Hello, I am looking for reported TGI with OVCAR-4 ovarian for Cc1ccc(-c2cc(-c3ccco3)c(C#N)c(=O)[nH]2)cc1 . Could you help?
stdout: > 100 µM

###

# Test system: T-47D breast
# Assay Notes: NCI tumour cell line growth inhibition, 48 h; in the data active = GI50 below about 0.43 µM; inactive = the rest
In this exercise, the only acceptable responses are active, inactive

Some solved cases for reference:
Molecule: C=C1SC(=Nc2c(C)cc(C)cc2C)N(C(=O)c2sc3ccccc3c2Cl)C12CCCCC2
Group Label: inactive
//
Molecule: CCn1c(C(=O)N(C2CC2)C2CC2)cc2c3c(ncn3C)c(Nc3cc(C)n(C)n3)nc21
Group Label: inactive
//
Molecule: O=C1c2ccc([N+](=O)[O-])cc2-c2c1c1ccccc1c(=O)n2CCCNCCCNCCCn1c2c(c3ccc([N+](=O)[O-])cc3c1=O)C(=O)c1ccccc1-2
Group Label: inactive
//
Molecule: C[C@H](NC(=O)[C@@H]1CSSC[C@@H](NC(=O)c2nc3ccccc3cc2O)C(=O)NCC(=O)N1C)c1ccccc1
Group Label: inactive

stdin: Returns: the outcome recorded for C/C(=N\O)c1cccc(Nc2cc(-n3ccnn3)c3ccccc3n2)c1 in this assay.
stdout: inactive

stdin: What is the recorded call for this molecule in the test? CCCC(=O)Nc1cc(C(=O)N2C[C@@H]3C[C@]34C2=CC(=O)c2[nH]cc(C)c24)n(COC)c1
stdout: inactive

stdin: Which outcome was assigned to O=C(c1ccc2ccccc2c1)c1c(C(F)(F)F)n([O-])c2cc(F)c(F)cc2[n+]1=O in this test?
stdout: inactive

stdin: State the result this test recorded for CCCc1c(CC)c(=N)c2ccccc2n1C .
stdout: inactive

###

# System: T-47D breast
# Assay Notes: NCI tumour cell line growth inhibition, 48 h
Lab note: anything with TGI at or over 20 µM counts as rule met; the rest go in rule not met.

Compound: FC(F)(F)c1cc(-c2nnc3n2N=C(N2CCCC2)CS3)cc(C(F)(F)F)c1
Group Label: rule met
--
Compound: Cc1ccc(C(=O)N/N=C(\N=Nc2cccc(Cl)c2)c2ccc(N(CCC#N)CCC#N)cc2C)cc1
Group Label: rule met
--
Compound: Cc1ccc(/C(=N\N=C(N)N)c2ccccc2)cc1
Group Label: rule met
--
Compound: CC(C)CNCC(O)COc1ccc(C(C)(C)c2ccc(OCC(O)CNCC(C)C)cc2)cc1 (configuration not stated)
Group Label: rule not met
--
Compound: Cc1ccc(S(=O)(=O)NNC(=O)c2cc(C)ccc2NC(=O)C23CC4CC(CC(C4)C2)C3)cc1
Group Label: rule met
--
Compound: Cc1nc2c3c(ncn2n1)Oc1c(c(-c2ccccc2)nn1-c1ccccc1)C3c1ccc(Cl)cc1 (configuration not stated)
Group Label: rule met
--
Compound: CCc1n(Cc2ccc3ccccc3n2)cc[n+]1Cc1ccc2ccccc2n1
Group Label: rule not met
--
Compound: CC(=O)OCC1OC(n2c3c(c(-c4cccc5ccccc45)c(C#N)c2=S)CCCC3)C(OC(C)=O)C(OC(C)=O)C1OC(C)=O (configuration not stated)
Group Label: rule met
--
Compound: COc1ccc(/C=c2\[nH]c3nc(=O)c(N4CCOCC4)c(N)n3c2=O)cc1
Group Label: rule met
--
Compound: C=C(CCC(C)C1CCC2C3=C(C(=O)CC21C)C1(C)CCC(=O)[C@@H](C)C1CC3=O)C(C)C(=O)O (some centres not stated)
Group Label: rule met

stdin: hey, is TGI for this one >= 20 µM? COc1ccc(-c2oc3c(OC)c(OC)c(OC)c(O)c3c(=O)c2OC)cc1OC
stdout: rule met

stdin: Exam item: decide whether the reported TGI for O=C(NCc1cccc(C(F)(F)F)c1)c1cc2sccc2nc1C(F)(F)F is at least 20 µM.
stdout: rule met

stdin: In plain terms: is recorded TGI at least 20 µM for CCCn1c(SC)nc(COC(=O)NC)c1COC(=O)NC ?
stdout: rule met
